Provide the reported pEC50 of each item.
Target: human GPR119 (Homo sapiens, UniProt Q8TDV5)
Construct: expression vector for human GPR119 cDNA (Acc. No. NP_848566)
Sequence (Q8TDV5 1-335): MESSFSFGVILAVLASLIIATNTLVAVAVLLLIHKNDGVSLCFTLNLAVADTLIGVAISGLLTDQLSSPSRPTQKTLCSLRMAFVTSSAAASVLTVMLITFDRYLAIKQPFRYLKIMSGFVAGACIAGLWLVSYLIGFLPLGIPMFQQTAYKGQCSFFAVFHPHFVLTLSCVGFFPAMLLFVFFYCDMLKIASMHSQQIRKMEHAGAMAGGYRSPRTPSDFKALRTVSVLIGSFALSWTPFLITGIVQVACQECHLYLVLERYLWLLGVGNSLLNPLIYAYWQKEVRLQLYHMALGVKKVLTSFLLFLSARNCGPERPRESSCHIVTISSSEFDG
Assay: AlphaScreen cAMP assay in Min-6/hGPR119 cells (activation of GPR119, intracellular cAMP)
Conditions: MIN6 cells stably transfected with human GPR119; cAMP by AlphaScreen after 45 minutes incubation at room temperature
Numbers only, as −log10 of the molar value.

Example entries begin here.
CCS(=O)(=O)c1ccc(-c2cc3c(cn2)OC(C2CCN(C(=O)OC(C)(C)C)CC2)C3)cc1 (stereo not shown)	7.92
CCNC(=O)c1ccc(-c2ccc3c(c2)CC(C2CCN(C(=O)OC(C)C)CC2)O3)cc1 (stereo not shown)	7.55
CC(C)OC(=O)N1CCC(C2Cc3cc(-c4ccc(C(=O)NCc5cocn5)cc4)ccc3O2)CC1 (stereo not shown)	7.40
COC1CN(C(=O)Cc2ccc(-c3ccc4c(c3)CC(C3CCN(C(=O)OC(C)C)CC3)O4)cc2)C1 (stereo not shown)	7.19
CC(O)CNC(=O)c1ccc(-c2ccc3c(c2)CC(C2CCN(C(=O)OC(C)C)CC2)O3)cc1 (stereo not shown)	7.14

Need pEC50 for each of these compounds.
1. CC(C)OC(=O)N1CCC(C2Cc3cc(-c4ccc(C(=O)N(C)CCO)cc4)ccc3O2)CC1 (stereo not shown)
2. CC(C)OC(=O)N1CCC(C2Cc3cc(-c4ccc(CC(=O)NCC5COCCO5)cc4)ccc3O2)CC1 (stereo not shown)

1. 7.09
2. 6.56

----------
Assign EC50 to each entry below.
target: human GPR119 (Homo sapiens); construct: expression vector for human GPR119 cDNA (Acc. No. NP_848566); experiment: AlphaScreen cAMP assay in Min-6/hGPR119 cells (activation of GPR119, intracellular cAMP); settings: MIN6 cells stably transfected with human GPR119; cAMP by AlphaScreen after 45 minutes incubation at room temperature
Answers are plain numbers, in nM.

CC(C)(C)OC(=O)N1CCC(C2Cc3cc(-c4ccc(S(N)(=O)=O)cc4)ncc3O2)CC1 (centres unmarked)	84
CC(C)(C)OC(=O)N1CCC(C2Cc3nc(-c4ccc(S(C)(=O)=O)cc4)ccc3O2)CC1 (centres unmarked)	214
Cc1nn(C)cc1-c1ccc2c(c1)CC(C1CCN(C(=O)OC(C)C)CC1)O2 (centres unmarked)	582
CC(C)OC(=O)N1CCC(C2Cc3cc(-c4ccc(C(=O)N5CCOCC5)cc4)ccc3O2)CC1 (centres unmarked)	9
CC(C)OC(=O)N1CCC(C2Cc3cc(-c4cnccn4)ccc3O2)CC1 (centres unmarked)	489
CC(=O)Nc1cc(-c2ccc3c(c2)CC(C2CCN(C(=O)OC(C)C)CC2)O3)ccc1C (centres unmarked)	3140
CC(C)(C)OC(=O)N1CCC(C2Cc3cc(-n4ccncc4=O)ncc3O2)CC1 (centres unmarked)	522
COc1cnc(-c2ccc3c(c2)CC(C2CCN(C(=O)OC(C)C)CC2)O3)nc1 (centres unmarked)	3310
CC(C)OC(=O)N1CCC(C2Cc3cc(-c4ccc(C(=O)N5CCC(C)(O)C5)cc4)ccc3O2)CC1 (centres unmarked)	94
CC(C)OC(=O)N1CCC(C2Cc3cc(-c4cncs4)ccc3O2)CC1 (centres unmarked)	190

I have 7 compounds here; please give me EC50 for each one.
1. Cc1nc(S(C)(=O)=O)ccc1-c1ccc2c(c1)CC(C1CCN(C(=O)OC(C)C)CC1)O2 (centres unmarked)
2. CC(C)OC(=O)N1CCC(C2Cc3cc(C4=CCN(S(C)(=O)=O)CC4)ncc3O2)CC1 (centres unmarked)
3. CC(C)(C)OC(=O)N1CCC(C2Cc3cc(-c4cnco4)ccc3O2)CC1 (centres unmarked)
4. CC(C)(C)OC(=O)N1CCC([C@H]2Cc3nc(-c4ccc(S(C)(=O)=O)cc4)ncc3O2)CC1
5. COC(=O)c1cc(-c2ccc3c(c2)CC(C2CCN(C(=O)OC(C)C)CC2)O3)cs1 (centres unmarked)
6. Cc1cc(-c2cc3c(cn2)OC(C2CCN(C(=O)OC(C)(C)C)CC2)C3)ccn1 (centres unmarked)
7. CC(C)(C)OC(=O)N1CCC(C2Cc3cc(-c4ccc(C#N)nc4)ncc3O2)CC1 (centres unmarked)

1: 147; 2: 17; 3: 77; 4: 218; 5: 770; 6: 49; 7: 30

FYI, the data here is from patent US8669271B2.
